Biological target: human BRD4 bromodomain II (Homo sapiens)
Construct: human BRD4 bromodomain II [based on Genbank NM_058243, residues 349-460]; host or cells: E. coli
Test: Bromodomain binding assay (AlphaScreen), BRD4 BDII
Details: AlphaScreen assay, Table C2; read-out: BRD4 BDII IC50
Provide the recorded IC50 for the entries that follow.

Summary for this compound, Cn1ccn(-c2ccc(-c3cc(F)cc(-c4ccnc(N5CCC6(CCCN6)C5)c4)c3O)cc2Cl)c1=O (stereo not drawn) : IC50 is 0.01 to 1 nM

According to the records, this compound COc1ccc(C)c(-c2cccc(-c3ccc(NC(C)=O)c(F)c3)c2O)c1 displays IC50 of > 100 nM

Recorded IC50 (compound CC(=O)Nc1ccc(-c2cccc(-c3cc(N4CCN(C5COC5)CC4)no3)c2O)cc1F ): 10 to 100 nM

Entry O=C1CCCN1c1ccc(-c2cccc(-c3ccnc(N4CCNCC4)c3)c2O)cc1F , IC50 reported as 1 to 10 nM

Query CC(=O)Nc1ccc(-c2cccc(-c3cc(N4CCNCC4)[nH]n3)c2O)cc1F [Example 162, ditrifluoroacetate] yields IC50 of > 100 nM

Kindly note the recorded IC50 for CN1CCN(c2ccc(-c3cccc(-c4cc(C5CC5)nc(N5CCNCC5)c4)c3O)cc2Cl)C1=O , which is 1 to 10 nM

Looking up C[C@@H]1CN(c2cc(-c3cc(F)cc(-c4ccc(-n5ccn(C)c5=O)c(Cl)c4)c3O)ccn2)CCN1C , I found its IC50 recorded as 0.01 to 1 nM

// recorded IC50 for C[C@H]1CN(c2cc(-c3cc(F)cc(-c4ccc(-n5ccn(C)c5=O)c(Cl)c4)c3O)cc3[nH]ncc23)CCN1 : 1 to 10 nM

Form field IC50, entry COCCC1CN(c2cc(-c3cc(F)cc(-c4ccc(-n5ccn(C)c5=O)c(Cl)c4)c3O)ccn2)CCN1 (stereo not drawn) : 0.01 to 1 nM

Item: Cn1ccn(-c2ccc(-c3cc(F)cc(-c4ccnc(N5CCC(C)(C(N)=O)C5)c4)c3O)cc2Cl)c1=O (stereo not drawn) | IC50: 1 to 10 nM

Record summary for CC(=O)Nc1ccc(-c2cccc(-c3cc(N4CCN(S(C)(=O)=O)CC4)no3)c2O)cc1 : reported IC50 = > 100 nM

get_value(item= CNC1(c2cccc(-c3cc(F)cc(-c4ccc(-n5ccn(C)c5=O)c(Cl)c4)c3O)c2)CC1 , readout=IC50) returns 0.01 to 1 nM

get_value(item= CC(C)N1CCN(c2cc(-c3cc(F)cc(-c4ccc(-n5ccn(C)c5=O)c(Cl)c4)c3O)ccc2F)CC1 , readout=IC50) returns 0.01 to 1 nM

Consider Cn1ccn(-c2ccc(-c3cc(F)cc(-c4ccc(Cl)c(N5CC[C@@](C)(O)C5)c4)c3O)cc2Cl)c1=O . Its measured IC50 is 1 to 10 nM

response.value for CC(=O)Nc1ccc(-c2cccc(-c3cccc(N4CCCCC4)c3)c2O)cc1F (field: IC50) = > 100 nM

* * *

Provide the recorded IC50 for the entries that follow.
Target: human BRD4 bromodomain II (Homo sapiens, UniProt O60885)
Construct: human BRD4 bromodomain II [based on Genbank NM_058243, residues 349-460]; host or cells: E. coli
Assay: Bromodomain binding assay (AlphaScreen), BRD4 BDII
Conditions: AlphaScreen assay, Table C2; read-out: BRD4 BDII IC50

# IC50 (compound: C[C@@H]1CN(c2cc(-c3cccc(-c4ccc(N5CCN(C)C5=O)c(F)c4)c3O)ccn2)CCN1 ) is 1 to 10 nM

Looking up Cn1ccn(-c2ccc(-c3cc(F)cc(-c4ccnc(N5CCC6(CCN6)C5)c4)c3O)cc2Cl)c1=O (stereo not drawn) , I found its IC50 recorded as 0.01 to 1 nM

GET /value?item= CC(=O)Nc1ccc(-c2cccc(-c3ccc(NC(C)=O)c(C#N)c3)c2O)cc1F &field=IC50 returns 10 to 100 nM

The compound identified as CC(C)N1CCN(c2ccc(-c3cc(F)cc(-c4ccnc(N5CCNCC5)c4)c3O)cc2Cl)C1=O registered its IC50 at > 100 nM

The value of IC50 measured for the compound Cc1ccc(-c2cc(F)cc(-c3ccc(-n4ccn(C)c4=O)c(Cl)c3)c2O)cc1N1CCN(C(C)(C)C)CC1 turned out to be 0.01 to 1 nM

# compound C[C@@H]1CN(c2cc(-c3cccc(-c4ccc(N5CCN(C)C5=O)c(Cl)c4)c3O)ccn2)CCN1 ; its IC50 = 1 to 10 nM

Input Cn1ccn(-c2ccc(-c3cc(F)cc(-c4ccnc(N5CC[C@@H](O)C5)c4)c3O)cc2Cl)c1=O . Output IC50: 0.01 to 1 nM

Note to self: IC50 recorded for Cn1cc(-c2cc(F)cc(-c3ccc(-n4ccn(C)c4=O)c(Cl)c3)c2O)cc(N2CCC(N)CC2)c1=O was 1 to 10 nM

The measured IC50 associated with CC(C)N1CCCC12CCN(c1cc(-c3cc(F)cc(-c4ccc(-n5ccn(C)c5=O)c(Cl)c4)c3O)ccn1)C2 (stereo not drawn) reads 1 to 10 nM

So, CN1CCN(c2ccc(-c3cc(F)cc(-c4cnc(Cl)c(N5CCNCC5)c4)c3O)cc2Cl)C1=O ? Its IC50 was 1 to 10 nM

Record Cn1ccn(-c2ccc(-c3cc(F)cc(-c4cncc(N5CC[C@@H](O)[C@H](N)C5)c4)c3O)cc2Cl)c1=O , field IC50: 1 to 10 nM

For this compound ( CC(=O)Nc1ccc(-c2cccc(-c3cccc(N4CCC(CN)CC4)c3)c2O)cc1F ), measured IC50 is > 100 nM

Lookup result for Cc1cc(-c2cc(F)cc(-c3ccc(-n4ccn(C)c4=O)c(Cl)c3)c2O)cc(N2CCN(C(C)C)CC2)n1 ; measured IC50: 1 to 10 nM

IC50 in this record for CCN1CCN(c2cc(-c3cccc(-c4ccc(NC(C)=O)c(F)c4)c3O)on2)CC1 : 10 to 100 nM

// recorded IC50 for CCc1cc(-c2cc(F)cc(-c3ccc(-n4ccn(C)c4=O)c(Cl)c3)c2O)cc(N2CCN(C(C)C)CC2)n1 : 0.01 to 1 nM

Values were extracted from patent US20250179059A1.
